Organism: Rattus norvegicus
MEASUREMENT_DESCRIPTION: Open TG-GATES - Regimen: Daily Repeat
Assay type: toxicity, organism-based, Sprague-Dawley
Design: regimen Daily Repeat, gender Male, age 6 weeks
MEASUREMENT_PARAMETERS: in vivo, po, 0 mg/kg, […], tissue Blood, route gavage, dose level Control, time 7 day
ENDPOINT_LABEL: Mono
// return the numeric value with its unit appended

# example entries with known answers
COMPOUND: NC(=O)N1c2ccccc2C=Cc2ccccc21 [CARBAMAZEPINE]
RESULT: 2.4%

COMPOUND: NC(=O)N/N=C/c1ccc([N+](=O)[O-])o1
RESULT: 3.2%

COMPOUND: CC(=O)Oc1ccccc1C(=O)O
RESULT: 2%

COMPOUND: COc1ccc(Cc2nccc3cc(OC)c(OC)cc23)cc1OC
RESULT: 2.8%

COMPOUND: C[C@H](CS)C(=O)N1CCC[C@H]1C(=O)O
RESULT: 4%

COMPOUND: CN(C)CCC=C1c2ccccc2CCc2ccccc21
RESULT: 2.8%

Provide Mono for all items below, preserving their order.
1. O=C(O)c1cn(C2CC2)c2cc(N3CCNCC3)c(F)cc2c1=O
2. O=C(O)c1cc(/N=N/c2ccc(S(=O)(=O)Nc3ccccn3)cc2)ccc1O
3. CSc1ccc2c(c1)N(CCC1CCCCN1C)c1ccccc1S2 (stereo not given)
4. CCCC(CCC)C(=O)O
5. COc1ccc2c(c1)c(CC(=O)O)c(C)n2C(=O)c1ccc(Cl)cc1
6. Clc1ccccc1CN1CCc2sccc2C1
7. Cn1c(=O)c2[nH]cnc2n(C)c1=O.O

Result:
1. 7%
2. 2.6%
3. 6.2%
4. 2.6%
5. 6.8%
6. 2.4%
7. 2.8%

Provide Mono for all items below, preserving their order.
1. CCc1cc(C(N)=S)ccn1 [ETHIONAMIDE]
2. CO[C@H]1/C=C/O[C@@]2(C)Oc3c(C)c(O)c4c(O)c(c(/C=N/N5CCN(C)CC5)c(O)c4c3C2=O)NC(=O)/C(C)=C\C=C\[C@H](C)[C@H](O)[C@@H](C)[C@@H](O)[C@@H](C)[C@H](OC(C)=O)[C@@H]1C

Result:
8%
6.2%

* * *

Exercise: for every item that follows, state its recorded Eos.
Species on record: Rattus norvegicus
MEASUREMENT_DESCRIPTION: Open TG-GATES - Regimen: Single
Assay type: toxicity, organism-based, Sprague-Dawley
Parameters: regimen Single, gender Male, age 6 weeks
MEASUREMENT_PARAMETERS: in vivo, po, 300 mg/kg, 9 h, tissue Blood, route gavage, dose level Middle

# example entries with known answers
MOLECULE: O=C(O)c1cc(/N=N/c2ccc(S(=O)(=O)Nc3ccccn3)cc2)ccc1O
Eos: 1%
//
MOLECULE: CCc1cc(C(N)=S)ccn1 [ETHIONAMIDE]
Eos: 1.4%
//
MOLECULE: O=C(O)c1cn(C2CC2)c2cc(N3CCNCC3)c(F)cc2c1=O
Eos: 0.8%
//
MOLECULE: Clc1ccccc1CN1CCc2sccc2C1
Eos: 1%

Request: Name the reported Eos value associated with the molecule `C[C@H](CS)C(=O)N1CCC[C@H]1C(=O)O`
Result: 0.8%

* * *

Species on record: Rattus norvegicus
MEASUREMENT_DESCRIPTION: Open TG-GATES - Regimen: Single
Assay type: toxicity, organism-based, Sprague-Dawley
Parameters: regimen Single, gender Male, age 6 weeks
MEASUREMENT_PARAMETERS: in vivo, po, 0 mg/kg, 9 h, tissue Plasma, route gavage, dose level Control
ENDPOINT_LABEL: PL (mg/dL)
One number for each entry, in mg/dL.

# example entries with known answers
MOLECULE: Clc1ccccc1CN1CCc2sccc2C1
PL, mg/dL: 130.8
--
MOLECULE: NC(=O)N1c2ccccc2C=Cc2ccccc21 [CARBAMAZEPINE]
PL, mg/dL: 127
--
MOLECULE: CSc1ccc2c(c1)N(CCC1CCCCN1C)c1ccccc1S2 (configuration not stated)
PL, mg/dL: 147.4
--
MOLECULE: Cn1c(=O)c2[nH]cnc2n(C)c1=O.O
PL, mg/dL: 125.6
--
MOLECULE: O=C(O)c1cc(/N=N/c2ccc(S(=O)(=O)Nc3ccccn3)cc2)ccc1O
PL, mg/dL: 142.2
--
MOLECULE: CCc1cc(C(N)=S)ccn1 [ETHIONAMIDE]
PL, mg/dL: 126.8
--
MOLECULE: COc1ccc(Cc2nccc3cc(OC)c(OC)cc23)cc1OC
PL, mg/dL: 134.6
--
MOLECULE: O=C(O)c1cn(C2CC2)c2cc(N3CCNCC3)c(F)cc2c1=O
PL, mg/dL: 120.4
--
MOLECULE: C[C@H](CS)C(=O)N1CCC[C@H]1C(=O)O
PL, mg/dL: 132.2
--
MOLECULE: CN(C)CCC=C1c2ccccc2CCc2ccccc21
PL, mg/dL: 140.4

Provide PL for all items below, preserving their order.
1. CC(=O)Oc1ccccc1C(=O)O
2. NC(=O)N/N=C/c1ccc([N+](=O)[O-])o1

Result:
1: 128.6; 2: 139.4
